These data points were gathered from the RNAGym collection of RNA variant scans (doi:10.7554/elife.80360).

Assignment: determine reported self-cleavage for the given variants.
B1: HDV Ribozyme (parent)
chain: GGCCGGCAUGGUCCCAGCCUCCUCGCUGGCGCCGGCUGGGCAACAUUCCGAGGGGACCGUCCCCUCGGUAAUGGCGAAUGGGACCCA

Variants of: B1
EXPERIMENT DESCRIPTION: self-cleavage, relative activity (ratio to wild type); higher = more cleavage; co-transcriptional

Worked set:
Query: // returns reported self-cleavage for input G76U A77C
Result: 0.295

Query: // returns reported self-cleavage for input C7G G67U
Result: 0.302

Proceed to the following item.
Query: // returns reported self-cleavage for input A51C G82A
Result: 0.298
